Can you tell me pKi for the items I'm about to list?
# Test details: Binding affinity to displace 0.4 nM of [3H]- gallopamil in rat myocardial membranes
# Format: cell membranes, Myocardium, Membrane
pKi is defined as minus the log10 of a concentration measured in mol/L.

Noted for COc1ccc(C(C#N)(CCCN(C)CCc2ccc(N(C)C(=O)C([N+]#N)C(F)(F)F)cc2)C(C)C)cc1OC (configuration not stated) : its pKi reads 7.42

The compound listed as COc1ccc(CCN(C)CCCC(C#N)(c2cc(OC)c(OC)c(OC)c2)C(C)C)cc1OC (configuration not stated) [GALLOPAMIL] has a reported pKi of 7.81
